This collection of values is drawn from ChEMBL document CHEMBL3988442.

Quick reference: Percent Effect of the listed items.
- Tested on: Wolbachia pipientis
- assay_notes: Anti-Wolbachia Cell-Based Screen
- Assay type: functional
- Design: scale not given: in the data most compounds retested in dose-response had high values
- conditions: 5 µM
Out of some 48,000 compounds screened, about 13,000 (27%) showed an effect of 50% or more. The list shows a part of the results.
Give the number; % is assumed, so skip it.

Consider the worked cases shown below.
* Cc1noc(C)c1CN1CCc2ncnc(-c3ccc(F)cc3)c2CC1.O=C(O)C(F)(F)F | 85.48
* Cn1cc(CN2CCc3ncnc(N4CCOCC4)c3CC2)cn1.O=C(O)C(F)(F)F.O=C(O)C(F)(F)F.O=C(O)C(F)(F)F | -9.324

[Q] Value lookup for Percent Effect; key = Cn1cc(NC(=O)N2CCC(NS(C)(=O)=O)CC2)ccc1=O
[A] -4.185

[Q] Item under review: O=c1c2cccnc2cnn1CC(O)c1cccc(C(F)(F)F)c1 (stereo not given) . Reported Percent Effect?
[A] 6.556
